SYSTEM_NAME: human dopamine D3 receptors (Homo sapiens, UniProt P35462)
Sequence (P35462 whole entry): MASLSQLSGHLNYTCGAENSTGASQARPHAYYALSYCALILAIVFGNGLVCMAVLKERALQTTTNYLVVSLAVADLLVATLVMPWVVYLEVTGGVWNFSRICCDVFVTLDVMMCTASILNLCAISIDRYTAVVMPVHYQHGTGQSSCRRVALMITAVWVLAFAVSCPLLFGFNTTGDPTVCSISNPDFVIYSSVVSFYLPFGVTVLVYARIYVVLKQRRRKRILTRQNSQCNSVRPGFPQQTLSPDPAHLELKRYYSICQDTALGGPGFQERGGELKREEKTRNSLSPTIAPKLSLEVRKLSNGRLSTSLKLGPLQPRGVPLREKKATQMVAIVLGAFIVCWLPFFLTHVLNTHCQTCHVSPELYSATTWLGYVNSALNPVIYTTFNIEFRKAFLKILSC
MEASUREMENT_LABEL: Ki (nM)

CCCN1CC[C@@H](c2ccc(NS(=O)(=O)c3ccc(N4CCOCC4)cc3)cc2)C1.Cl [Example 120, hydrochloride] : 2
CCN1CC[C@@H](c2ccc(NS(=O)(=O)c3ccc(OC(F)(F)F)cc3)cc2)C1 : 8.3
CCCN1CCC(c2ccc(NS(=O)(=O)c3ccc(C(C)C)cc3)cn2)C1 (centres unmarked) : 10.8
CCCCOc1ccc(S(=O)(=O)Nc2ccc([C@@H]3CCN(CCC)C3)cc2)cc1 : 0.46

a. C=Cc1ccc(S(=O)(=O)Nc2ccc([C@@H]3CCN(CCC)C3)cc2)cc1
b. CCCN1CC[C@@H](c2ccc(NS(=O)(=O)c3ccc(-c4cnn(C)c4)cc3)cc2)C1
c. CCCN1CC[C@@H](c2ccc(NS(=O)(=O)c3ccc(Br)s3)cc2)C1.Cl [Example 28, hydrochloride]
d. C=CCN1CC[C@@H](c2ccc(NS(=O)(=O)c3ccc(C(C)C)cc3)cc2)C1.Cl [Example 3, hydrochloride]
Q: Order field: Ki | Direction: descending (largest first) Hello, could you send the labels back in the order asked? Thank you.
A: b, c, a, d
(b: 36.6 nM, c: 3.3 nM, a: 0.45 nM, d: 0.17 nM)

---

Where a name gives a salt, the structure may show the parent alone.
Observed Ki values for UniProtKB P35462 are listed in what follows.
MEASUREMENT_LABEL: Ki (nM)

Some compounds with known Ki results, for comparison:
CCCN1CC[C@@H](c2ccc(NS(=O)(=O)c3ccc(Br)cc3)cc2)C1.Cl [Example 25, hydrochloride] : 1.6
CC(C)c1ccc(S(=O)(=O)Nc2ccc([C@@H]3CCN(CC4CC4)C3)cc2)cc1 : 0.23
CCCN1CC[C@@H](c2ccc(NS(=O)(=O)c3ccc(C(C)(C)CC)cc3)cc2)C1.Cl [Example 2, hydrochloride] : 0.24
CCCN1CC[C@@H](c2ccc(NS(=O)(=O)c3ccc(-c4cnco4)cc3)cc2)C1 : 0.84

a. CCCN1CC[C@@H](c2ccc(NS(=O)(=O)c3ccc(CCCF)cc3)cc2)C1
b. O=S(=O)(Nc1ccc([C@@H]2CCNC2)cc1)c1ccc(OC(F)(F)F)cc1
c. CCCN1CC[C@@H](c2ccc(NS(=O)(=O)c3ccc(C4CCCC4)cc3)cc2)C1 [Example 37, hydrochloride]
d. CCCN1CC[C@@H](c2ccc(NS(=O)(=O)c3ccc(C)cc3)cc2)C1.Cl [Example 10, hydrochloride]
Q: Please put the entries in order of rising Ki. Labels, ranked as asked.
A: c, a, d, b
(c: 0.15 nM, a: 0.61 nM, d: 1.9 nM, b: 52 nM)

---

SYSTEM_NAME: human dopamine D3 receptors (Homo sapiens, UniProt P35462)
Construct: expressed in transfected cells
MEASUREMENT_DESCRIPTION: Dopamine D3 receptor binding, displacement of [125I]-iodosulpride
CONDITION: selectivity ratio of the receptor binding constants D2 over D3
MEASUREMENT_LABEL: Ki(D2)*/Ki(D3)*

Reference set, count: 5
CCCN1CC[C@@H](c2ccccc2NS(=O)(=O)c2ccc(Br)c(F)c2)C1 : 31
O=S(=O)(Nc1ccc([C@@H]2CCN(CCCF)C2)cc1)c1ccc(OC(F)(F)F)cc1 : 111
CCCCOc1ccc(S(=O)(=O)Nc2ccc([C@@H]3CCN(CCC)C3)cc2)cc1 : 40
CCCN1CC[C@@H](c2ccc(NS(=O)(=O)c3ccc(C(CF)CF)cc3)cc2)C1 : 22
C=CCN1CC[C@@H](c2ccc(NS(=O)(=O)c3ccc(C(C)C)cc3)cc2)C1.Cl : 91

1. CC(C)c1ccc(S(=O)(=O)Nc2ccc(C3CCN(Cc4ccccc4)C3)c(F)c2)cc1 (centres unmarked)
2. CCCN1CC[C@@H](c2ccc(NS(=O)(=O)c3ccc(F)cc3)cc2)C1.Cl
3. CCCN1CC[C@@H](c2ccc(NS(=O)(=O)c3ccc(CCC(F)(F)F)cc3)cc2)C1
Q: Descending sort on Ki(D2)*/Ki(D3)* required. Response field: labels, in requested order.
A: 2, 3, 1
(2: 67, 3: 45, 1: 5)

---

pKi: −log10 of the molar value.
Dear all, this message contains pKi results, target or system human dopamine D3 receptors (Homo sapiens, UniProt P35462).
MEASUREMENT_LABEL: pKi

Record excerpt, results attached:
CCCN1CC[C@@H](c2ccc(NS(=O)(=O)c3ccc(CCF)cc3)cc2)C1.Cl [Example 86, hydrochloride] : 8.93
CCCN1CC[C@@H](c2ccc(NS(=O)(=O)c3ccc(SC(F)(F)F)cc3)cc2)C1 : 8.52
CCCN1CC[C@@H](c2ccc(NS(=O)(=O)c3ccc(CC)cc3)cc2)C1.Cl [Example 6, hydrochloride] : 9.35
CCCN1CC[C@@H](c2ccc(NS(=O)(=O)c3ccc(-c4ccon4)s3)cc2)C1 : 7.50
CCCN1CC[C@@H](c2ccc(NS(=O)(=O)c3cc(F)c(Br)cc3F)cc2)C1 : 8.29

A. CCCN1CC[C@@H](c2ccc(NS(=O)(=O)c3ccc(Cl)s3)cc2)C1
B. CCCN1CC[C@@H](c2ccc(NS(=O)(=O)c3ccc(F)cc3)cc2)C1.Cl [Example 125, hydrochloride]
Q: Field: lower recorded pKi (choose A or B ) // caller expects the label of the chosen entry
A: B
(B: 7.71, A: 8.21)

A. CCCN1CC[C@@H](c2ccc(NS(=O)(=O)c3ccc(C(C)C)cc3F)cc2)C1
B. C=CCN1CC[C@H](c2ccc(NS(=O)(=O)c3ccc(C(C)C)cc3)cc2)C1.Cl [Example 4, hydrochloride]
Q: Could you please tell me which of these two has the higher pKi: A or B ? Write down the label attached to your selection.
A: A
(A: 9.40, B: 8.50)

---

SYSTEM_NAME: human dopamine D2L receptors (long isoform) (Homo sapiens, UniProt P14416)
Sequence (P14416 whole entry, canonical isoform): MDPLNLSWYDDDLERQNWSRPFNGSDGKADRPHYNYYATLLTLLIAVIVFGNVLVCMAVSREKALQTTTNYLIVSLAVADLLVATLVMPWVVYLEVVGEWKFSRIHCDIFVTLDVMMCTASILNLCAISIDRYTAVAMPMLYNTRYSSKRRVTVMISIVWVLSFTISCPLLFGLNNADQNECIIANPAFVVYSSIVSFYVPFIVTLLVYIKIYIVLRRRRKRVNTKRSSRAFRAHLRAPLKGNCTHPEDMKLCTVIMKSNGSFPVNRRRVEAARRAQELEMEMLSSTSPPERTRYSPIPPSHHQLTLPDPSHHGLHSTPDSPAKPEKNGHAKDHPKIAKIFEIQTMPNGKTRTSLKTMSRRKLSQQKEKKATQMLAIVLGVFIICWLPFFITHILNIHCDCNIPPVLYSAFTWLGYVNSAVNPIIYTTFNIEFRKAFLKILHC
MEASUREMENT_DESCRIPTION: Dopamine D2L receptor binding, displacement of [125I] iodospiperone
CONDITION: membranes of HEK-293 cells stably expressing human D2L; 0.01 nM [125I] iodospiperone; 25° C., 60 minutes; read-out: Ki(D2)*
Procedure: The substance to be tested was either dissolved in methanol/Chremophor® (BASFAG) or in dimethyl sulfoxide and then diluted with water to the desired concentration. Each assay mixture was run in triplicate. […] The inhibition curves were analyzed by means of iterative nonlinear regression analysis using the Statistical Analysis System (SAS) which is similar to the “LIGAND” program described by Munson and Rodbard. […]
pKi: −log10 of the molar value.
MEASUREMENT_LABEL: pKi

CCCN1CC(c2ccc(NS(=O)(=O)c3ccc(-c4cnco4)cc3)cc2)C1 : 5.93
CCCN1CC[C@@H](c2ccc(NS(=O)(=O)c3ccc(F)c(F)c3)cc2)C1.Cl [Example 126, hydrochloride] : 5.99

a. CCCN1CC[C@@H](c2ccc(NS(=O)(=O)c3ccc(-n4cccn4)cc3)cc2)C1
b. CCCN1CC(c2ccc(NS(=O)(=O)c3ccc(CCCF)cc3)cc2)C1
c. C=CCN1CC[C@H](c2ccc(NS(=O)(=O)c3ccc(C(C)C)cc3)cc2)C1.Cl [Example 4, hydrochloride]
d. CCCCOc1ccc(S(=O)(=O)Nc2ccc([C@@H]3CCN(CCC)C3)cc2)cc1
Q: Sort these molecules on pKi so the largest reading comes first. Answer format: the labels, in the requested order.
A: d, a, c, b
(d: 7.74, a: 7.04, c: 6.39, b: 6.06)

a. CCCN1CC[C@@H](c2ccc(NS(=O)(=O)c3ccc(C(C)=O)cc3)cc2)C1
b. C=C(C)c1ccc(S(=O)(=O)Nc2ccc([C@@H]3CCN(CCC)C3)cc2)s1
Q: # returns the entry with the larger pKi; inputs a and b Please identify the chosen entry by its label.
A: b

I. CCCN1CC[C@@H](c2ccc(NS(=O)(=O)c3ccc(-c4csnn4)cc3)cc2)C1
II. CCCN1CC[C@@H](c2ccc(NS(=O)(=O)c3ccc(CC(C)C)cc3)cc2)C1.Cl [Example 35, hydrochloride]
III. CCCN1CC[C@@H](c2ccc(NS(=O)(=O)c3ccc(-c4cnco4)cc3)cc2)C1
IV. CCCN1CC[C@@H](c2ccc(NS(=O)(=O)c3ccc(F)cc3)cc2)C1.Cl [Example 125, hydrochloride]
Q: # ascending order, key=pKi Write out the labels following the order that was asked for.
A: IV, I, III, II
(IV: 5.88, I: 6.71, III: 7.43, II: 8.13)

A. C=CCN1CC[C@H](c2ccc(NS(=O)(=O)c3ccc(C4CC4(F)F)cc3)cc2)C1 (stereo partly shown)
B. CCCN1CC[C@@H](c2ccc(NS(=O)(=O)c3ccc(-c4ccco4)cc3)cc2)C1
C. CCCN1CC[C@@H](c2ccc(NS(=O)(=O)c3ccc(Br)s3)cc2)C1.Cl [Example 28, hydrochloride]
Q: Please give the order of these molecules when sorted by pKi, largest value leading. Answer by listing the labels in the order asked for.
A: B, C, A
